# assayed-system: Bifunctional protein GlmU (Escherichia coli (strain K12))
# method-description: Inhibition of Escherichia coli GlmU acetyltransferase activity assessed as coenzyme A production using acetyl CoA substrate
Would you kindly list pIC50 for each of these compounds?
Give bare numbers, as −log10 of the molar value.

Hey, can you go through the list below and give me pIC50 for every item?
1. COc1cc(OC)c(S(=O)(=O)Nc2ccc(F)cc2)cc1NC(C)=O
2. COc1cc(OC)c(S(=O)(=O)NCc2ccccc2N2CCC(CO)CC2)cc1NC(=O)CCC(=O)O
3. COc1cc(OC)c(S(=O)(=O)N2CCCCC2)cc1NC(C)=O
4. COc1ccccc1CNS(=O)(=O)c1cc(NC(C)=O)c(OC)cc1OC

Reply text:
[4.60, 5.52, 4.10, 5.00]

----------
# assayed-system: Bifunctional protein GlmU (Escherichia coli (strain K12), UniProt P0ACC7)
# Sequence (P0ACC7 whole entry): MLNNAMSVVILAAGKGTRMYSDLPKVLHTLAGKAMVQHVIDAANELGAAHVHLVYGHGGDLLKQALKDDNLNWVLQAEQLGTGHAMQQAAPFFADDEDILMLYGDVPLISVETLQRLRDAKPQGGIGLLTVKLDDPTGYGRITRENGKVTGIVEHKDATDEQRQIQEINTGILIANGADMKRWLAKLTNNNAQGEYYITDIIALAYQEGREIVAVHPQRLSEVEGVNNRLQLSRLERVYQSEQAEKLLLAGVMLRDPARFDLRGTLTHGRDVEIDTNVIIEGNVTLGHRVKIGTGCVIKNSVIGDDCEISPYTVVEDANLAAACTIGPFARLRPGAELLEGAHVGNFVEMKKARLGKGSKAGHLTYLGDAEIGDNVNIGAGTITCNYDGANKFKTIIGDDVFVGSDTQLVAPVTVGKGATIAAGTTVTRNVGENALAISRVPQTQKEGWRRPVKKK
# method-description: Inhibition of Escherichia coli GlmU acetyltransferase activity assessed as coenzyme A production using acetyl CoA substrate
Would you kindly list IC50 for each of these compounds?
Answers are plain numbers, in nM.

Below, each entry is followed by its recorded IC50 result.
{"smiles-text": "COc1cc(O)c(S(=O)(=O)N2c3ccccc3CC[C@H]2C)cc1NC(=O)[C@H]1[C@H](C)[C@H]1C(=O)O", "assayed-system": "Bifunctional protein GlmU (Escherichia coli (strain K12), UniProt P0ACC7)", "assay-value": 480}
{"smiles-text": "COc1cc(OC)c(S(=O)(=O)N2c3ccccc3CC[C@@H]2C)cc1NC(=O)Cc1ccnc(C#N)c1", "assayed-system": "Bifunctional protein GlmU (Escherichia coli (strain K12), UniProt P0ACC7)", "assay-value": 680}
{"smiles-text": "COc1cc(OC)c(S(=O)(=O)NCc2ccccc2N2CCC(C(=O)O)CC2)cc1NC(=O)CCC(=O)O", "assayed-system": "Bifunctional protein GlmU (Escherichia coli (strain K12), UniProt P0ACC7)", "assay-value": 500}

# input for lookup
Inquiry: // IC50 lookup, key: `COc1cc(OC)c(S(=O)(=O)N2c3ccccc3Oc3ccccc32)cc1NC(=O)Cc1ccncc1`
Reply text: 60

----------
Would you kindly list inhibition for each of these compounds?
# assayed-system: Bifunctional protein GlmU (Escherichia coli (strain K12)) (UniProt P0ACC7)
# Sequence (P0ACC7 whole entry, looked up): as the sequence (P0ACC7 whole entry) above
# method-description: Inhibition of Escherichia coli GlmU acetyltransferase activity assessed as coenzyme A production using acetyl CoA substrate at 100 uM

Below, each entry is followed by its recorded inhibition result.
{"compound": "CN1C(C(=O)NCC2CCCO2)=CC(c2ccco2)=NS1(=O)=O (stereo unspecified)", "inhibition": "28.6%"}
{"compound": "COc1ccc(-c2cnc(C)o2)cc1S(=O)(=O)Nc1cccc(Cl)c1", "inhibition": "40.6%"}
{"compound": "CSc1cccc(NS(=O)(=O)c2cc3c(cc2Cl)NC(=O)CO3)c1", "inhibition": "68.7%"}
{"compound": "COc1ccc(Cl)cc1N(CC(=O)O)S(=O)(=O)c1ccccc1", "inhibition": "45.1%"}
{"compound": "COc1cc(Nc2c(-c3ccccc3)c(=O)c2=O)cc(OC)c1", "inhibition": "40%"}

Inquiry: // inhibition lookup, key: `COC(=O)c1cc(S(=O)(=O)Nc2cccc(SC)c2)c[nH]1`
Reply text: 5.65%

----------
# assayed-system: Bifunctional protein GlmU (Escherichia coli (strain K12))
# method-description: Inhibition of Escherichia coli GlmU acetyltransferase activity assessed as coenzyme A production using acetyl CoA substrate
pIC50: −log10 of the molar value.
Each record's class is read off its pIC50 using these ranges: low = under 5, middle = from 5 up to 6, high = 6 and over

Worked examples, 10 compounds total:
{"smiles-text": "COc1cc(O)c(S(=O)(=O)N2c3ccccc3CC[C@H]2C)cc1NC(=O)CCC(=O)O", "class-name": "high"}
{"smiles-text": "COc1cc(OC)c(S(=O)(=O)NCc2ccccc2N2CCCCC2)cc1NC(=O)CCC(=O)O", "class-name": "middle"}
{"smiles-text": "COc1cc(OC)c(S(=O)(=O)N2c3ccccc3CC[C@@H]2C)cc1NC(=O)/C=C/C(=O)O", "class-name": "high"}
{"smiles-text": "COc1cc(OC)c(S(=O)(=O)N2c3ccccc3CC[C@@H]2C)cc1NC(=O)c1ccccc1", "class-name": "low"}
{"smiles-text": "COc1cc(OC)c(S(=O)(=O)NCc2ccccc2CC(=O)O)cc1NC(C)=O", "class-name": "low"}
{"smiles-text": "COc1cc(OC)c(S(=O)(=O)N2CCC[C@H]2C)cc1NC(C)=O", "class-name": "low"}
{"smiles-text": "COc1cc(OC)c(S(=O)(=O)NCc2ccccc2Br)cc1NC(C)=O", "class-name": "middle"}
{"smiles-text": "COc1cc(OC)c(S(=O)(=O)N(c2ccccc2)c2ccccc2)cc1NC(=O)CCC(=O)O", "class-name": "high"}
{"smiles-text": "COc1cc(OC)c(S(=O)(=O)NCc2ccc3c(c2)OCO3)cc1NC(C)=O", "class-name": "low"}
{"smiles-text": "COc1cc(O)c(S(=O)(=O)N2c3ccccc3Oc3ccccc32)cc1NC(=O)[C@H]1[C@H](C)[C@@H]1C(=O)O", "class-name": "high"}

Turning to the following compound.
Inquiry: Please indicate the class for `COc1cc(OC)c(S(=O)(=O)N2c3ccccc3CC[C@H]2C)cc1NS(C)(=O)=O` based on its pIC50.
Reply text: low

Value source: ChEMBL document CHEMBL3414535
